B1: glmS ribozyme (parent)
chain: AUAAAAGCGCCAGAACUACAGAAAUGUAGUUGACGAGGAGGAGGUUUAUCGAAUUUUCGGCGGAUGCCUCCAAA

# Variants of: B1
# Experiment notes: self-cleavage kobs at 40 uM GlcN6P; higher = faster cleavage; RNA array
# Condition description: with glucosamine-6-phosphate
Fewer inactive variants are shown than the library holds.
self-cleavage kobs at 40 uM GlcN6P values for the variants below.

Observe how each entry below is paired with its result.
[[record]]
var = "A6U A15U A36G A52C"
value_type = "self-cleavage kobs at 40 uM GlcN6P"
result_value = "< 1e-05 s⁻¹"

[[record]]
var = "A15G C70G"
value_type = "self-cleavage kobs at 40 uM GlcN6P"
result_value = "8.28e-05 s⁻¹"


Kindly review the next variant as well.
Exercise: Given the variant U30C G44A , write its reported self-cleavage kobs at 40 uM GlcN6P.
Solution: < 1e-05 s⁻¹

These measurements were taken from the supplement of paper PMC7125110.
